Source of measurements: patent US20250034170A1

target: GCase (Homo sapiens, UniProt P04062); construct: endogenous in cells; host or cells: HeLa cells; experiment: activation of GCase in a live cell PFB assay in HELA cells; assay type: cell-based; conditions: activation of GCase, EC50 ranges
Sequence (P04062 40-536): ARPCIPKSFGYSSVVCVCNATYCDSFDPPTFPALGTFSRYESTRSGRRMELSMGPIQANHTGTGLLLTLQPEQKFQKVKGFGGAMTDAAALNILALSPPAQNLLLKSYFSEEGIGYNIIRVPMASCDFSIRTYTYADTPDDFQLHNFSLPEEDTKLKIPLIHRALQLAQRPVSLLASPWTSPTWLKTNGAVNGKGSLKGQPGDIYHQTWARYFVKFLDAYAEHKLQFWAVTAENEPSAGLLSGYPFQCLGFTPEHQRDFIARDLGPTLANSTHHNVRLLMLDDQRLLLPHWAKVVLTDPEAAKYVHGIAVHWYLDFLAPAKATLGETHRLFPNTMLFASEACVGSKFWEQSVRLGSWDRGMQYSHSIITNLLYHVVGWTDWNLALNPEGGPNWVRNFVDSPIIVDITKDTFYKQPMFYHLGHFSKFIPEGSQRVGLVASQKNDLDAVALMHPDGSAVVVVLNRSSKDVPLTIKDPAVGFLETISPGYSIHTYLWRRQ
Could you please report measured EC50 for the items listed next?

[Q] Query EC50 on GCase (Homo sapiens, UniProt P04062) for `FC(F)Cn1ncc2ncc(N3CCC4(CN(Cc5ccc(C(F)(F)F)nc5)C4)C3)nc21`
[A] < 10 µM

[Q] What do you get for `FC(F)Cn1ncc2ncc(N3CCC4(CC3)CC(COc3ccnc(C(F)(F)F)c3)C4)nc21` ?
[A] < 10 µM

[Q] What do you get for `O=C(c1ccc(C(F)(F)F)nc1)N1CC2(CCN(c3cnc4cnn(CC(F)F)c4n3)CC2)C1` ?
[A] 10 to 50 µM

[Q] What do you get for `Cc1nc(N2CCC3(CCN(c4cnc5c(C)nn(CC(F)F)c5n4)CC3)C2)cc(C(F)(F)F)n1` ?
[A] > 100 µM

[Q] What do you get for `O=C1N(Cc2cncc(F)c2)CCC12CCN(c1cnc3cnn(CC(F)F)c3n1)CC2` ?
[A] 10 to 50 µM

[Q] What do you get for FC(F)(F)c1ncc(N2CC3(CCN(c4ncc5cnn(C6CCCCO6)c5n4)C3)C2)cn1 (centres unmarked) ?
[A] > 100 µM

[Q] What do you get for `FC(F)Cn1ncc2ncc(N3CCC4(CC3)CN(c3ncccc3C(F)(F)F)C4)nc21` ?
[A] < 10 µM

[Q] What do you get for `O=C1CC2(CCN(c3ncc4cnn(CC(F)F)c4n3)CC2)CN1c1ccnc(C(F)(F)F)n1` ?
[A] < 10 µM

###

Could you please report measured pEC50 for the items listed next?
molecular target: GCase (Homo sapiens, UniProt P04062); construct: endogenous in cells; host or cells: HeLa cells; assay: activation of GCase in a live cell PFB assay in HELA cells; type: cell-based; settings: EC50 given as range classes
pEC50: −log10 of the molar value.

[Q] Fill in the blank: the reported pEC50 of `Cc1nn(CC(F)(F)F)c2nc(N3CCC4(CN(c5cnc(C(F)(F)F)nc5)C4)C3)cnc12` is ____.
[A] < 4.00

[Q] What do you get for `FC(F)Cn1ncc2ncc(N3CCOC4(CCN(c5cccc(C(F)(F)F)n5)CC4)C3)nc21` ?
[A] 4.30 to 5.00

[Q] What do you get for `Cc1nc(N2CC3(CCN(c4cnc5cnn(CC(F)F)c5n4)C3)C2)ncc1Cl` ?
[A] < 4.00

[Q] What do you get for `Cc1ccc(S(=O)(=O)N2CC3(CCN(c4cnc5cnn(CC(F)F)c5n4)C3)C2)cn1` ?
[A] 4.30 to 5.00

[Q] What do you get for `Cc1ncc(N2CC3(CCN(c4ncc5c(C)nn(CC(F)(F)F)c5n4)C3)C2)c(C(F)(F)F)n1` ?
[A] 4.30 to 5.00

[Q] What do you get for O=C1N(c2ccc(C(F)(F)F)nc2)CCC12CCN(c1cnc3cnn(CC(F)F)c3n1)C2 (stereo not shown) ?
[A] 4.30 to 5.00

[Q] What do you get for `O=S(=O)(c1ccccc1Cl)N1CC2(CCN(c3cnc4cnn(CC(F)F)c4n3)C2)C1` ?
[A] 4.30 to 5.00

[Q] What do you get for `Cc1nc(N2CCC3(CCN(c4ccc5cnn(CC(F)F)c5n4)CC3)C2)cc(C(F)(F)F)n1` ?
[A] > 5.00

[Q] What do you get for `O=C1N(c2ccc(C(F)(F)F)nc2)C(=O)C2(CCN(c3cnc4cnn(CC(F)F)c4n3)CC2)N1Cc1cc(F)cc(F)c1` ?
[A] > 5.00

[Q] What do you get for FC(F)Cn1ncc2ncc(NC3CCC4(CCN(c5ccc(C(F)(F)F)nc5)CC4)C3)nc21 (stereo not shown) ?
[A] 4.30 to 5.00
